src = PubChem BioAssay AID1963962

We begin with a simple list: items and their reported viability, T/C.
system: 967376-340-R-J2-PDC multicell spheroid viability; assay: Anticancer human tumor 967376-340-R-J2-PDC patient-derived colon adenocarcinoma cell line growth inhibition [PI3K]; conditions: second compound 0.00316 µM; first compound 0.0316 µM; active compounds read low;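 note: luminescence used as surrogate of cell viability; spheroids exposed to agents for 7 days before read-out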
Note: unit % is implicit; provide only the numeric part.

COMPOUND	MEASURED ATTRIBUTE	RESULT VALUE
CC(C)n1nc(-c2ccc3oc(N)nc3c2)c2c(N)ncnc21 + CC(Nc1ccc2c(c1)OCCn1cc(N3C(=O)OCC3C(F)F)nc1-2)C(N)=O	viability, T/C	73.1
C#Cc1c(F)ccc2cc(O)cc(-c3ncc4c(N5CC6CCC(C5)N6)nc(OCC56CCCN5CC(F)C6)nc4c3F)c12 (centres undefined) + COc1c(OCCCN2CCOCC2)ccc2c3n(c(=NC(=O)c4cnc(N)nc4)nc12)CCN3	viability, T/C	89
C[C@@H](NC(=O)c1ncnc(N)c1Cl)c1ncc(C(=O)Nc2cc(C(F)(F)F)c(Cl)cn2)s1 + CC(Nc1ccc2c(c1)OCCn1cc(N3C(=O)OCC3C(F)F)nc1-2)C(N)=O	viability, T/C	105

// moving on: another record for viability, T/C
Request: Checklist item: viability, T/C tested on 967376-340-R-J2-PDC multicell spheroid viability, entry Cn1nccc1Nc1nccc(-c2ccn(C(CO)c3ccc(Cl)c(F)c3)c(=O)c2)n1 (centres undefined) + COc1c(OCCCN2CCOCC2)ccc2c3n(c(=NC(=O)c4cnc(N)nc4)nc12)CCN3 , value?;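 note: luminescence used as surrogate of cell viability; spheroids exposed to agents for 7 days before read-out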
Result: 117
